Overview of reported Kd across a group of binders:
- assayed.target: T1, Recombinant human MMR (R&D systems) (human, UniProt P22897 19-1383)
- T1 construct: Antigen of the PE-ELISA and the SPR; also called hMMR; recombinant hMMR
- T1 sequence: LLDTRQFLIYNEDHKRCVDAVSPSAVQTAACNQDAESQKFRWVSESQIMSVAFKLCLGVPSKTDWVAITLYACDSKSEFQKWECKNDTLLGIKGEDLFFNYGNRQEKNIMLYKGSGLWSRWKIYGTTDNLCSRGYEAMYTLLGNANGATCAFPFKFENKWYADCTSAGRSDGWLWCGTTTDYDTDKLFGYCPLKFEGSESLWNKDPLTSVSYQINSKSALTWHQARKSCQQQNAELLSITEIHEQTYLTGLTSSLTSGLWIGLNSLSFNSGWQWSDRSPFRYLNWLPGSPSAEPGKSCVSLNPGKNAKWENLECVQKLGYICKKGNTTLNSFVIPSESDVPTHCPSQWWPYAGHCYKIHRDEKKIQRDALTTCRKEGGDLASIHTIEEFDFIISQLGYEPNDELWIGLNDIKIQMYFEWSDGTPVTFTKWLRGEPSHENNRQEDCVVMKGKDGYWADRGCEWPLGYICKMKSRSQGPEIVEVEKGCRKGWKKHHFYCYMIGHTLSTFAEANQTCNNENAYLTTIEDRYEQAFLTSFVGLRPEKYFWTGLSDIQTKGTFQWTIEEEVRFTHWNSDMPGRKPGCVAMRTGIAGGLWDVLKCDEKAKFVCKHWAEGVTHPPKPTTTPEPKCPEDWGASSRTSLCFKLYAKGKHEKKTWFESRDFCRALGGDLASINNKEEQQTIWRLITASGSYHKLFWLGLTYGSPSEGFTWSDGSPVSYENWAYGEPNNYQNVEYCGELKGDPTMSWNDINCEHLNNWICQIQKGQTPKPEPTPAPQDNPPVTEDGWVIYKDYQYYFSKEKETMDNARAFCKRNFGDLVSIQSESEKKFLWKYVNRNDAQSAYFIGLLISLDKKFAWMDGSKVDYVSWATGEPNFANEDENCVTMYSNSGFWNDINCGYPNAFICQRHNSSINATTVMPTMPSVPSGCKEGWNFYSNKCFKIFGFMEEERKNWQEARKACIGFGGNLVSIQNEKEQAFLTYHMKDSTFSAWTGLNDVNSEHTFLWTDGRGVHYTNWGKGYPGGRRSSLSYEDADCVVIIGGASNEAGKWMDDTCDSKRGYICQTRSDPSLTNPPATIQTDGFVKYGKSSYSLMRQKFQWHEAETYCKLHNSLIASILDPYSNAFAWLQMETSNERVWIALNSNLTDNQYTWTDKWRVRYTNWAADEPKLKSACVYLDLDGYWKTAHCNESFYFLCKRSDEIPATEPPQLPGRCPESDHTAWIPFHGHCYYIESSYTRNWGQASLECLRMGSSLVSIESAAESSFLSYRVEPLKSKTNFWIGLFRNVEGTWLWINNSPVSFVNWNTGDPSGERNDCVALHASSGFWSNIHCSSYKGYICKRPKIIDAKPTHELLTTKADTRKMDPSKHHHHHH
- test: SPR, BIAcore T100; human MMR on CM5 chip, sdAb as analyte
Numbers only here, please. The scale is nM.

May I ask what Kd has been recorded for NbhmMMRm15.49 (VHH, Produced from pMECS with C-terminal HA and 6xHis tag) VHH: QVQLQESGGGLVQAGGSLRLSCAASGSTFSINNMGWYRQAPGKQRELVAGITGGNTHYADSVKGRFTISRDNAKNTMYLQMNSLKPEDTAVYYCNANWGAYWGQGTQVTVSS ?
290

May I ask what Kd has been recorded for NbhmMMRm6.71 (VHH, Produced from pMECS with C-terminal HA and 6xHis tag) VHH: QVQLQESGGGLVQAGGSLRLSCAASGGTFDDSVIGWFRQAPGKEREGVSCISSNDGTTHYASPVKGRFTISSDNAKNTVYLQMNSLKPEDTAVYYCAAETPSIGSPCTSASYDYWGQGTQVTVSS ?
5.6

Next:
May I ask what Kd has been recorded for NbhMMRm3.1 (VHH, Produced from pMECS with C-terminal HA and 6xHis tag; also called NbhmMMRm3.1) VHH: QVQLQESGGGLVQPGGSLRLSCAASGFTLDYYAIGWFRQAPGKEREGISCISYKGGSTTYADSVKGRFTISKDNAKNTAYLQMNNLKPEDTGIYYCAAGFVCYNYDYWGPGTQVTVSS ?
3.4
